What IC50 was measured for each of the following?
biological target: ALK (Homo sapiens, UniProt Q9UM73); assay: Assay of activity on ALK kinase; format: biochemical; conditions: kinase inhibition
Sequence (Q9UM73 19-1620): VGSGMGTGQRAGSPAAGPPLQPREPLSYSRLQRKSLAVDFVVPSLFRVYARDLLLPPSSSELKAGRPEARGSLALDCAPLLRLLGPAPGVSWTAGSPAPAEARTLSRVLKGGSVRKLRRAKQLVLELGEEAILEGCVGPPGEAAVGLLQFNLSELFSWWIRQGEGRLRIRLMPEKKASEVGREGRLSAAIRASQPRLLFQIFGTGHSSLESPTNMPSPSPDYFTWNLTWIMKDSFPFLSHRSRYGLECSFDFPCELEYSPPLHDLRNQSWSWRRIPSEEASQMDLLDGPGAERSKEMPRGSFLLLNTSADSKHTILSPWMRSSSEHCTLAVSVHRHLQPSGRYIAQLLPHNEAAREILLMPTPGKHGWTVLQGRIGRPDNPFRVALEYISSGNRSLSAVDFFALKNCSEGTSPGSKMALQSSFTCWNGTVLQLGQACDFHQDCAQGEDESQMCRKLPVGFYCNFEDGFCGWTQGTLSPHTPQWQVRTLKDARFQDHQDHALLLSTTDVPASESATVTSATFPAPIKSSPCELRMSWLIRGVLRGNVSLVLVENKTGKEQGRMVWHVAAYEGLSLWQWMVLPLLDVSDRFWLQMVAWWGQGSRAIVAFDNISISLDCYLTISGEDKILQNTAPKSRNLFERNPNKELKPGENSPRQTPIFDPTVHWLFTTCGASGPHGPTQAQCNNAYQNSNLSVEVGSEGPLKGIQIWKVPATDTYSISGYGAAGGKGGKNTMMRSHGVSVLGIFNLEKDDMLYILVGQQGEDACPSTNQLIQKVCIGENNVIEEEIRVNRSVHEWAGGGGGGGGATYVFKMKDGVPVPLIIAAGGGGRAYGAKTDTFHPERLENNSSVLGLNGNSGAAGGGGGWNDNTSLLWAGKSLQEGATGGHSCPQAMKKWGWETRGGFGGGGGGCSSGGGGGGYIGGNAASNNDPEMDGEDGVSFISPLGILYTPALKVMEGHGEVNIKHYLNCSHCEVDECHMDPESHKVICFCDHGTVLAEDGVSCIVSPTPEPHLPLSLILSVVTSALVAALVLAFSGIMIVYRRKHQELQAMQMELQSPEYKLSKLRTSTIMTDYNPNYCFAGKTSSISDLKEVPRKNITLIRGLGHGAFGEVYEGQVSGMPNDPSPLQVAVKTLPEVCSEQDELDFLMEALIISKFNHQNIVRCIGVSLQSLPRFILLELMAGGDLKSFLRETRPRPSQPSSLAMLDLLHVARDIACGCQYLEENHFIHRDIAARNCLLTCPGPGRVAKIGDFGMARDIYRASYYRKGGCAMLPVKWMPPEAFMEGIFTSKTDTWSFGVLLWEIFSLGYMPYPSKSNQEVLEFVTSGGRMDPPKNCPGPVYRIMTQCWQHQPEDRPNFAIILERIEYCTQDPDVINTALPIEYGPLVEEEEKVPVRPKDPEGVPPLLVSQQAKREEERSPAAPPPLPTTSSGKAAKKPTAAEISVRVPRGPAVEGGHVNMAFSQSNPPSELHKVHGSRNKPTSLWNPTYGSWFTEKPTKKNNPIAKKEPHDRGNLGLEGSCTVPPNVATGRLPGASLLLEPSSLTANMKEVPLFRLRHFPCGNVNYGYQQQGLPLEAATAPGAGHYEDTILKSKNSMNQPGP

Q: Need IC50 of COc1cc(N2CCC(N3CCN(C(=O)CCCCCCOc4cccc5c4C(=O)N(C4CCC(=O)NC4=O)C5=O)CC3)CC2)ccc1Nc1ncc(Cl)c(Nc2ccccc2P(C)(C)=O)n1 (stereo not drawn) [Compound A2] , thanks.
Result: 1 to 100 nM

Q: Then COc1cc(N2CCC(N3CCN(CCCCCC#Cc4cccc5c4CN(C4CCC(=O)NC4=O)C5=O)CC3)CC2)ccc1Nc1ncc(Cl)c(Nc2ccccc2P(C)(C)=O)n1 (stereo not drawn) [Compound C1] ?
Result: 1 to 100 nM

Q: Can you handle COc1cc(N2CCC(N3CCN(CCCCCCC#Cc4cccc5c4CN(C4CCC(=O)NC4=O)C5=O)CC3)CC2)ccc1Nc1ncc(Cl)c(Nc2ccccc2P(C)(C)=O)n1 (stereo not drawn) [Compound C177] next?
Result: 1 to 100 nM

###

Field: GI50. Provide a value for each of the compounds that follow.
target: Ba/F3(EGFR^L858R/T790M/C797S) cells (Homo sapiens, UniProt P00533, T790M/C797S/L858R, cells depend on it); test: Assay of activity on Ba/F3 cells (CTG, 72 h); type: cell-based; settings: read-out: IC50 (nM) Ba/F3 (EGFR^L858R/T790M/C797S)
Sequence (P00533 whole entry T790M/C797S/L858R): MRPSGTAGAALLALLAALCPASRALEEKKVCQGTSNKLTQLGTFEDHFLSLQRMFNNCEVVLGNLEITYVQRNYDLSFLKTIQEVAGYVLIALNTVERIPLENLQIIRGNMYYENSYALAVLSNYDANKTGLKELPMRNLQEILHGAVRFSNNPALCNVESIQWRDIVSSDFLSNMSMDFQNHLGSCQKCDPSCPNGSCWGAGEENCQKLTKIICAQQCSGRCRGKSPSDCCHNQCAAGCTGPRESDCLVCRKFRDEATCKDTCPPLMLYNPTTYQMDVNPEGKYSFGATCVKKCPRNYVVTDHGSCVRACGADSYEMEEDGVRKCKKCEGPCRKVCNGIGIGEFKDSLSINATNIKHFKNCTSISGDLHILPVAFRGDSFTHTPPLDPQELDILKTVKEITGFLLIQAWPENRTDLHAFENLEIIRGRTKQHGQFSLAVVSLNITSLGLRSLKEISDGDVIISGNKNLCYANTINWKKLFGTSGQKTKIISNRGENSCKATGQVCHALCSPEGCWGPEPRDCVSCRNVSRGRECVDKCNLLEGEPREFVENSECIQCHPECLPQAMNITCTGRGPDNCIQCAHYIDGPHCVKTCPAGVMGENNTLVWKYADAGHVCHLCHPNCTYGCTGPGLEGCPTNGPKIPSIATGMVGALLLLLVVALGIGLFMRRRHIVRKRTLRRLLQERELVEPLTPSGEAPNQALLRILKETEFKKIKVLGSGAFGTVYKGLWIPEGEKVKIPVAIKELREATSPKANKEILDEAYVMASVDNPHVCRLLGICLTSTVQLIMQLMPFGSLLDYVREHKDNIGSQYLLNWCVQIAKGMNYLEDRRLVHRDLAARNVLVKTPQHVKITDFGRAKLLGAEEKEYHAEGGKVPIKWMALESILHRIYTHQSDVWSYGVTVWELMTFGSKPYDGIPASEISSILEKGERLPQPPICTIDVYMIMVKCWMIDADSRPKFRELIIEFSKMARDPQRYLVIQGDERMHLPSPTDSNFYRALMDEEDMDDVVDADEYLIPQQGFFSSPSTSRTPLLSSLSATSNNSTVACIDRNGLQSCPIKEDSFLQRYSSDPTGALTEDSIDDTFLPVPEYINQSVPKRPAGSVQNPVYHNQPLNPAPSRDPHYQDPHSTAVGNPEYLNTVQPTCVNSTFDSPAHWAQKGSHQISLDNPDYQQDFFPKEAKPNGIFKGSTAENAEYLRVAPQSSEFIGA

Q: Could you share which GI50 value was measured for COc1cc(N2CCC(N3CCN(CCCCCC#Cc4c(F)ccc5c4CN(C4CCC(=O)NC4=O)C5=O)CC3)CC2)ccc1Nc1ncc(Cl)c(Nc2ccccc2P(C)(C)=O)n1 (centres unmarked) ?
Result: 101 to 200 nM

Q: Record: COc1cc(N2CCC3(CCN(CCCCCOc4cccc5c4CN(C4CCC(=O)NC4=O)C5=O)CC3)CC2)c(C)cc1Nc1ncc(Br)c(Nc2ccc3nccnc3c2P(C)(C)=O)n1 (centres unmarked)
Result: 1 to 100 nM

Q: Same for COc1cc(N2CCC(N3CCN(CCCCCCCOc4cccc5c4C(=O)N(C4CCC(=O)NC4=O)C5=O)CC3)CC2)ccc1Nc1ncc(Cl)c(Nc2ccccc2P(C)(C)=O)n1 (centres unmarked)
Result: 1 to 100 nM

Q: Can you check COc1cc(N2CCC(N3CCN(CCCCCCCCCNc4cccc5c4CN(C4CCC(=O)NC4=O)C5=O)CC3)CC2)ccc1Nc1ncc(Cl)c(Nc2ccccc2P(C)(C)=O)n1 (centres unmarked) next?
Result: 101 to 200 nM

Q: Next up: COc1cc(N2CCC(N3CCN(CCCc4ccc(-c5ccc6c(c5)CN(C5CCC(=O)NC5=O)C6=O)cc4)CC3)CC2)ccc1Nc1ncc(Cl)c(Nc2ccccc2P(C)(C)=O)n1 (centres unmarked)
Result: 1 to 100 nM

###

target: ALK^G1202R (Homo sapiens, UniProt Q9UM73, G1202R); assay: Assay of activity on ALK kinase; format: biochemical; details: kinase inhibition
Sequence (Q9UM73 19-1620 G1202R): as the sequence (Q9UM73 19-1620) above, with G1184R counted along it
Exercise: state measured IC50 for each of the molecules provided.

Q: Using the record for COc1cc(N2CCC(N3CCN(CCCCCCCC#Cc4cccc5c4CN(C4CCC(=O)NC4=O)C5=O)CC3)CC2)ccc1Nc1ncc(Cl)c(Nc2ccccc2P(C)(C)=O)n1 (centres unmarked) , report its IC50.
Result: 201 to 300 nM

Q: Try COc1cc(N2CCC(N3CCN(CCCCCCC#Cc4ccc5c(c4)CN(C4CCC(=O)NC4=O)C5=O)CC3)CC2)ccc1Nc1ncc(Cl)c(Nc2ccccc2P(C)(C)=O)n1 (centres unmarked) next.
Result: > 300 nM

Q: Now this one: COc1cc(N2CCC(N3CCN(CCCCCC#Cc4ccc5c(c4)CN(C4CCC(=O)NC4=O)C5=O)CC3)CC2)ccc1Nc1ncc(Cl)c(Nc2ccccc2P(C)(C)=O)n1 (centres unmarked)
Result: 201 to 300 nM

Q: Check COc1cc(N2CCC(N3CCN(CC4(COc5cccc6c5C(=O)N(C5CCC(=O)NC5=O)C6=O)CC4)CC3)CC2)ccc1Nc1ncc(Cl)c(Nc2ccccc2P(C)(C)=O)n1 (centres unmarked) too.
Result: 201 to 300 nM

Q: Try COc1cc(N2CCC(N3CCN(CC(=O)N4CC(Oc5cccc6c5C(=O)N(C5CCC(=O)NC5=O)C6=O)C4)CC3)CC2)ccc1Nc1ncc(Cl)c(Nc2ccccc2P(C)(C)=O)n1 (centres unmarked) next.
Result: 1 to 100 nM
